These measurements were taken from patent US8309545B2.

- TARGET: human Kv1.3 ion channel (Homo sapiens, UniProt P22001)
- Construct: Human Jurkat cells (which endogenously express hKv1.3) were used in place of rat L929 cells; endogenous in cells
- Sequence (P22001 whole entry): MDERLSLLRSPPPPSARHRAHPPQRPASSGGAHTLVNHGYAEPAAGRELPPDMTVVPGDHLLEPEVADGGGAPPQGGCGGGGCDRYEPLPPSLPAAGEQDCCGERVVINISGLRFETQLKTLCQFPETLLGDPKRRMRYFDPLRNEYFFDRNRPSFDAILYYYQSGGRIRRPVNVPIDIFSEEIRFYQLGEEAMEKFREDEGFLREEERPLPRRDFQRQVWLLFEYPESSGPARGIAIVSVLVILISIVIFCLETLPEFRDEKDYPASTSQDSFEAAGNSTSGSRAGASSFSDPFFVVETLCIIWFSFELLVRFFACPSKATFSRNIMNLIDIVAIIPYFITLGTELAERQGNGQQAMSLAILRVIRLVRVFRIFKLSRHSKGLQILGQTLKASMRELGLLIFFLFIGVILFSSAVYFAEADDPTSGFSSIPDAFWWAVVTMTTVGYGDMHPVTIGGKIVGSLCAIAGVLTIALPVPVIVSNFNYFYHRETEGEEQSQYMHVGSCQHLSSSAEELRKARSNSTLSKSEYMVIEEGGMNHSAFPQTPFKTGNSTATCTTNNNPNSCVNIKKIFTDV
- TEST_NAME: Inhibition of Kv1.3 currents, planar patch clamp in Jurkat cells
- TEST_CONTEXT: Human Jurkat cells (endogenous hKv1.3), averaged dose response data from 3 or more cells
pEC50: −log10 of the molar value.
OBSERVED_PROPERTY: pEC50

- COc1c(OCCCc2ccccc2)c(C(C)=O)c(C)c2ccoc12 [4 c)]: 6.65

P. CC(=O)c1c(OCCN2CCOCC2)c(OCCCc2ccccc2)c2occc2c1C [Example 19]
Q. CC(=O)c1c(OCCCCn2ccnc2)c(OCCCc2ccccc2)c2occc2c1C [Example 30]
Ask: Hi, I'm comparing P with Q and wondering which one has the bigger number for pEC50. Any idea? Lab note: record the label of whichever item you select.
Reply: P
(P: 7.29, Q: 6.92)

1. Cc1cc(=O)c2c(C)c3ccoc3c(OCCCc3ccccc3)c2o1 [18 a)]
2. COc1c(C(C)=O)c(OCCCSc2ccccc2)c(OC)c2occc12 [Example 8]
Ask: Hi, I'm comparing 1 with 2 and wondering which one has the bigger number for pEC50. Any idea? Lab note: record the label of whichever item you select.
Reply: 1
